- assay text: MLM metabolic stability (half-life)
- Format: in vitro ADME, mice
- measurement context: mouse, mouse liver microsomes (MLM), 1 μM compound, beta-NADPH 1 mM, 60 min, LC-MS, read-out: MLM T1/2
Consider the following compounds and their measured half-life at 1 μM readings.

O=C(O)CCCSc1nnc(-c2ccc(C3CC3)cc2Cl)o1 : 0.783 h
O=C(O)CCCSc1nnc(-c2ccc(OC3CC3)cc2Cl)o1 : > 1 h
O=C(O)CCCSc1nnc(-c2ccc(OCC(F)(F)F)cc2Cl)o1 : > 1 h
O=C(O)[C@H]1C[C@@H](Sc2nnc(-c3ccc(Cl)cc3Cl)o2)C1 : > 1 h

Now consider the entry below.
**Q:** Consider the compound O=C(O)CCCSc1nnc(-c2ccc(C(F)(F)F)cc2Cl)o1 and give its measured half-life at 1 μM.
**A:** > 1 h

The reported numbers originate from patent US10851072B2.
